TEST SYSTEM: falcipain-2 (Plasmodium falciparum, UniProt Q8I6U4)
Construct: made in house; host or cells: E. coli
Sequence (Q8I6U4 244-484): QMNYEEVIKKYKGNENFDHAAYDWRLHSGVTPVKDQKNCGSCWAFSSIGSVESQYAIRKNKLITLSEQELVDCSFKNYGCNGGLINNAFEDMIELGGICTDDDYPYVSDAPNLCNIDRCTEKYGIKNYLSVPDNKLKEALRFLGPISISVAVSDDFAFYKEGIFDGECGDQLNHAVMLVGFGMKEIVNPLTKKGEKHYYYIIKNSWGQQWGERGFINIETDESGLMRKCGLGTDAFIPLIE
ASSAY OVERVIEW: Inhibition of recombinant falcipain-2, fluorometric microplate assay (Cbz-Phe-Arg-AMC)
Format: biochemical
CONDITION INFO: recombinant falcipain-2; values marked ^a: only one experiment; ni = no inhibition; read-out: FP-2 IC50
VALUE TYPE: IC50 (µM)

{"MOLECULE": "C=C(CC)C(=O)c1ccc(OCC(=O)NCC(=O)N[C@@H](C)C(N)=O)c(Cl)c1Cl [Compound 15]", "TEST SYSTEM": "falcipain-2 (Plasmodium falciparum, UniProt Q8I6U4)", "IC50 (µM)": 212}
{"MOLECULE": "C=C(CC)C(=O)c1ccc(OCC(=O)Nc2ccccc2)c(Cl)c1Cl [Compound 13]", "TEST SYSTEM": "falcipain-2 (Plasmodium falciparum, UniProt Q8I6U4)", "IC50 (µM)": 269}
{"MOLECULE": "C=C(CC)C(=O)c1ccc(OCC(=O)O)c(Cl)c1Cl [Compound 8, etacrynic acid]", "TEST SYSTEM": "falcipain-2 (Plasmodium falciparum, UniProt Q8I6U4)", "IC50 (µM)": 443}
{"MOLECULE": "C=C(CC)C(=O)c1ccc(OCC(=O)NC(C)(C)C)c(Cl)c1Cl [Compound 18]", "TEST SYSTEM": "falcipain-2 (Plasmodium falciparum, UniProt Q8I6U4)", "IC50 (µM)": 255}
{"MOLECULE": "C=C(CC)C(=O)c1ccc(OCC(=O)N[C@H](C)C(=O)OCc2ccccc2)c(Cl)c1Cl [Compound 12]", "TEST SYSTEM": "falcipain-2 (Plasmodium falciparum, UniProt Q8I6U4)", "IC50 (µM)": 165}

A. C=C(CC)C(=O)c1ccc(OCC(=O)NCC(=O)N[C@@H](Cc2ccccc2)C(N)=O)c(Cl)c1Cl [Compound 16]
B. C=C(CC)C(=O)c1ccc(OCC(=O)NCCCCCC(=O)O)c(Cl)c1Cl [Compound 23]
Inquiry: Between the two listed entries A and B , which has its IC50 at the higher number? Bench note: the answer is the label of the chosen record.
Reply text: A

----------
ASSAY OVERVIEW: In vitro cytotoxicity assay
Assay type: cell-based
CONDITION INFO: human, 293T human kidney epithelium cells; 293T cells
Method: Recombinant falcipain-2 and falcipain-3 were produced as previously described. […] The cysteine protease inhibitor E-64 was used as a positive control. The solvent DMSO was used as negative control. […] For the experimental procedures, cells were detached from the flasks with a rubber policeman, washed twice with PBS (phosphate-buffer saline) containing 1 mL trypsin-EDTA (1 x), and suspended at 2 x 10^6 cells mL^-1 in complete medium. […]
VALUE TYPE: IC50

Inquiry: Answer with the recorded IC50 for the molecule listed here: C=C(CC)C(=O)c1ccc(OCC(=O)NCCCCCC(=O)O)c(Cl)c1Cl [Compound 23]
Reply text: > 160 µM
